- SYSTEM: D(2) dopamine receptor (Homo sapiens) (UniProt P14416)
- Sequence (P14416 whole entry, looked up): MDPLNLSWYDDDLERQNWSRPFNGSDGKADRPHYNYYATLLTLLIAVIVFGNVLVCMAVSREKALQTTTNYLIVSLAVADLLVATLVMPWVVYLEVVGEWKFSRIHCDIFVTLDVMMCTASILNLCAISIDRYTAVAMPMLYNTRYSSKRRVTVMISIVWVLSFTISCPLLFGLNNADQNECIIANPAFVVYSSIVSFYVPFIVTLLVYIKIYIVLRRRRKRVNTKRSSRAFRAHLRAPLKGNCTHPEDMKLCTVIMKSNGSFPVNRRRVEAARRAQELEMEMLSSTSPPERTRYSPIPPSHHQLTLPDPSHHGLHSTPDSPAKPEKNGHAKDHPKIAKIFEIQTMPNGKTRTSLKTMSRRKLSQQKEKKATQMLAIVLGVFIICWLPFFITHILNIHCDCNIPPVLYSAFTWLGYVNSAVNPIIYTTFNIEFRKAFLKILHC
- ASSAY INFO: HTS Assay for Allosteric Antagonists of the Human D2 Dopamine Receptor: Primary Screen for Antagonists; further: 0% is about no effect
- ASSAY CONTEXT: HEK293 TREx D2 cells, calcium flux, dopamine EC80; at 10 µM; hits give high values
Screen size: about 340,000 compounds; about 6,900 (2%) were called active. What follows is part of a selection rich in actives, with near analogues and random picks from the rest.

{"COMPOUND": "CCC(c1nnc(SCC(=O)NNC(=O)c2ccccc2)n1Cc1ccccc1)N(C)C (stereo not drawn)", "inhibition": "-24.9% (inactive)"}
{"COMPOUND": "CCCn1nc(C(=O)NNC(=O)CCOc2ccccc2OCC)c2ccccc2c1=O", "inhibition": "17.8% (inactive)"}
{"COMPOUND": "O=C(CSc1nc(C2CC2)nc2ccccc12)Nc1ccc2c(c1)OCCO2", "inhibition": "4.27% (inactive)"}
{"COMPOUND": "O=C(NNC(=S)NC1CCCCC1)c1ccccc1Cl", "inhibition": "-5.96% (inactive)"}
{"COMPOUND": "Cc1ccccc1C(=O)NC(=S)Nc1ccc(N2CCN(C(=O)c3ccccc3)CC2)cc1", "inhibition": "-1.88% (inactive)"}
{"COMPOUND": "CC(C)c1ccc(S(=O)(=O)N2CCN(C(C)C(=O)NC3CCCC3)CC2)cc1 (stereo not drawn)", "inhibition": "-16.2% (inactive)"}
{"COMPOUND": "O=C(CSc1ccccc1)Nc1cccc(S(=O)(=O)N2CCCCC2)c1", "inhibition": "0.706% (inactive)"}
{"COMPOUND": "CC(=O)Nc1ccc(SCC(=O)Nc2ccccc2Oc2ccccc2)cc1", "inhibition": "-7.41% (inactive)"}
{"COMPOUND": "Cc1nnc(NC(=O)CSc2nc(C3CCCCC3)nc3ccccc23)s1", "inhibition": "35.4% (active)"}
{"COMPOUND": "OCC1(Cc2ccccc2)CCN(Cc2cc3ccccc3o2)CC1", "inhibition": "94.6% (active)"}
{"COMPOUND": "CCC(=O)c1ccc(OCC(=O)Nc2ccc(N3CCCCC3)cc2)cc1", "inhibition": "19% (inactive)"}
{"COMPOUND": "O=C(CSc1nc(C2CC2)nc2ccccc12)Nc1cccc(O)c1", "inhibition": "6.46% (inactive)"}
{"COMPOUND": "CC(=O)c1cccc(CN2CCC(CO)(Cc3ccccc3)CC2)c1", "inhibition": "3.1% (inactive)"}

----------
- SYSTEM: D(2) dopamine receptor (Homo sapiens) (UniProt P14416)
- ASSAY INFO: HTS Assay for Allosteric Antagonists of the Human D2 Dopamine Receptor: Primary Screen for Antagonists; further: 0% is about no effect
- ASSAY CONTEXT: HEK293 TREx D2 cells, calcium flux, dopamine EC80; at 10 µM
The campaign covered roughly 340,000 compounds. About 6,900 (2%) were called active. Rule as the data show it: active = inhibition above about 30%; inactive = below that, where a call was filed. What follows is part of a selection rich in actives, with near analogues and random picks from the rest.
Labels: class 1 for active, class 0 for inactive

{"COMPOUND": "COc1ccc(OC)c(CNC(=O)C2CCCN(c3nc4ccccc4o3)C2)c1 (stereo unspecified)", "DISCRETE LABEL": "class 0"}
{"COMPOUND": "COC(=O)Cc1ccc(OC(=O)C2CCN(S(=O)(=O)c3ccc(OC)c(OC)c3)CC2)cc1", "DISCRETE LABEL": "class 0"}
{"COMPOUND": "CCS(=O)(=O)N1CCC(N2CCN(c3ccccc3)CC2)CC1", "DISCRETE LABEL": "class 1"}
{"COMPOUND": "C=CCN(c1ccc(C(=O)Nc2cc(C)cc(C)c2)cc1)S(C)(=O)=O", "DISCRETE LABEL": "class 0"}
{"COMPOUND": "O=C1c2oc3ccccc3c(=O)c2C(c2cccc(O)c2)N1c1ccccn1 (stereo unspecified)", "DISCRETE LABEL": "class 1"}
{"COMPOUND": "CCN(CC)CCNC(=O)CCCCCn1c(=O)[nH]c2cc(C(=O)OC)ccc2c1=O", "DISCRETE LABEL": "class 0"}
{"COMPOUND": "S=C(NCCc1ccccc1)NCc1ccccc1Cl", "DISCRETE LABEL": "class 0"}
{"COMPOUND": "COc1ccccc1N1CCN(C(=O)c2cc3c(-c4ccc(Cl)cc4)nn(C)c3s2)CC1", "DISCRETE LABEL": "class 1"}
{"COMPOUND": "COc1ccc(CNC(=O)COc2ccccc2C(=O)c2cnn(-c3ccccc3)c2)cc1OC", "DISCRETE LABEL": "class 0"}
{"COMPOUND": "CCCS(=O)(=O)N1CCCC(C(=O)N2CCN(c3ccccc3)CC2)C1 (stereo unspecified)", "DISCRETE LABEL": "class 0"}
{"COMPOUND": "CCOC(=O)c1c(C)oc(C)c(C(=O)OCC)c1=O", "DISCRETE LABEL": "class 0"}
{"COMPOUND": "CN(CC(=O)NC1CCN(Cc2ccccc2)CC1)S(=O)(=O)c1ccc(Cl)s1", "DISCRETE LABEL": "class 1"}
{"COMPOUND": "CCN(Cc1ccccc1)C(=O)Cc1ccc(OC)c(S(=O)(=O)N2CCOCC2)c1", "DISCRETE LABEL": "class 0"}
{"COMPOUND": "CCN(CC)C(CNC(=O)CSc1nnnn1-c1cccc(F)c1)c1ccco1 (stereo unspecified)", "DISCRETE LABEL": "class 0"}
{"COMPOUND": "Cc1[nH]c2ccccc2c1C(=O)C(C)Sc1nnc(C2CC2)o1 (stereo unspecified)", "DISCRETE LABEL": "class 0"}
{"COMPOUND": "CNC(=O)C(NC(=O)c1ccccc1)=C(C)C", "DISCRETE LABEL": "class 0"}
{"COMPOUND": "CC(CN1CCOCC1)OC(=O)c1ccc(C(C)(C)C)cc1 (stereo unspecified)", "DISCRETE LABEL": "class 1"}
{"COMPOUND": "Cc1cc(C)nc(SCC(=O)N(C)C)n1", "DISCRETE LABEL": "class 0"}
{"COMPOUND": "O=C1c2oc3ccc(Br)cc3c(=O)c2C(c2cccc(F)c2)N1CCO (stereo unspecified)", "DISCRETE LABEL": "class 0"}
{"COMPOUND": "O=C(CCCCn1c(=O)[nH]c2ccccc2c1=O)NCc1ccc2c(c1)OCO2", "DISCRETE LABEL": "class 0"}
{"COMPOUND": "COc1ccc(N2CCN(C(=O)COC(=O)c3cccc(S(=O)(=O)Nc4ccccc4OC)c3)CC2)cc1", "DISCRETE LABEL": "class 0"}
{"COMPOUND": "CC(C)=C(NC(=O)c1ccccc1)C(=O)N/N=C(\\C)c1ccccc1O", "DISCRETE LABEL": "class 1"}
{"COMPOUND": "CSCc1ccc(C(=O)Nc2cc(C)cc(C)c2)cc1", "DISCRETE LABEL": "class 1"}
{"COMPOUND": "O=C(NNC(=S)NCc1ccco1)C(c1ccccc1)c1ccccc1", "DISCRETE LABEL": "class 0"}
{"COMPOUND": "O=C(CCCCCn1c(=O)[nH]c2ccccc2c1=O)NCCc1c[nH]c2ccccc12", "DISCRETE LABEL": "class 1"}
{"COMPOUND": "CC(C)c1ccc(C(=O)NCCCc2ccccc2)cc1", "DISCRETE LABEL": "class 0"}
{"COMPOUND": "OC(COCC1COc2ccccc2O1)CN1CCN(c2ccc(F)cc2)CC1 (stereo unspecified)", "DISCRETE LABEL": "class 0"}
{"COMPOUND": "CCOc1ccc(NC(=O)CN(C)C(=O)CSc2ccccc2)cc1OCC", "DISCRETE LABEL": "class 0"}
{"COMPOUND": "Cc1csc(SCC(=O)N(c2ccccc2)C(C)C)n1", "DISCRETE LABEL": "class 0"}
{"COMPOUND": "O=C(N[C@@H](Cc1c[nH]c2ccccc12)C(=O)O)OCC1c2ccccc2-c2ccccc21", "DISCRETE LABEL": "class 0"}
{"COMPOUND": "CS(=O)(=O)N1CCC(C(=O)N2CCN(c3ccccc3)CC2)CC1", "DISCRETE LABEL": "class 1"}

----------
- SYSTEM: D(2) dopamine receptor (Homo sapiens)
- ASSAY INFO: HTS Assay for Allosteric Antagonists of the Human D2 Dopamine Receptor: Primary Screen for Antagonists; further: 0% is about no effect
- ASSAY CONTEXT: HEK293 TREx D2 cells, calcium flux, dopamine EC80; at 10 µM
The whole screen tested about 340,000 compounds, of which about 6,900 (2%) were called active. Cut-off read from the data, not from the text of the source: active = inhibition above about 30%; inactive = below that, where a call was filed. This excerpt belongs to a sample that is enriched for actives.
Classes used: Y (active), N (inactive)

{"COMPOUND": "Cc1c(C)c2c(OCC(=O)NCCCO)cc3c(c2oc1=O)CCC(C)(C)O3", "DISCRETE LABEL": "N"}
{"COMPOUND": "CC(=O)c1ccc(OCCCC(=O)Nc2ccc(C)c(S(=O)(=O)N3CCOCC3)c2)cc1", "DISCRETE LABEL": "N"}
{"COMPOUND": "O=C(CN1CCc2ccccc2C1)Nc1cccc(S(=O)(=O)N2CCOCC2)c1", "DISCRETE LABEL": "N"}
{"COMPOUND": "Cc1ccc(Cl)cc1NC(=O)COC(=O)CC(C)(C)C", "DISCRETE LABEL": "Y"}
{"COMPOUND": "CCC(CC)C(=O)Nc1ccc(S(=O)(=O)Nc2nccs2)cc1", "DISCRETE LABEL": "Y"}
{"COMPOUND": "Cc1ccc2oc(=O)c3cnn(CC(=O)N4CCN(c5ccccn5)CC4)c3c2c1", "DISCRETE LABEL": "N"}
{"COMPOUND": "Cc1c(C)c2c(OCC(=O)N[C@@H](C(=O)O)c3ccccc3)cc3c(c2oc1=O)CCC(C)(C)O3", "DISCRETE LABEL": "Y"}
{"COMPOUND": "COc1ccc(OC)c(CN2CCN(C(=O)CNC(=O)c3cc(C)cc(C)c3)CC2)c1", "DISCRETE LABEL": "N"}
{"COMPOUND": "CCN(CC)c1ccc(NC(=O)CN2C(=O)NC3(CCc4ccccc43)C2=O)cc1 (configuration not stated)", "DISCRETE LABEL": "N"}
{"COMPOUND": "Cc1c(C(C)CCCO)oc(=O)c2c1Oc1c(C)c(C(C)C[C@@H](C)O)oc(=O)c1C2 (some centres not stated)", "DISCRETE LABEL": "N"}
{"COMPOUND": "O=C(Cc1ccccc1)NCc1ccc(F)cc1", "DISCRETE LABEL": "N"}
{"COMPOUND": "COc1ccccc1OC(C)C(=O)Nc1ccc(S(=O)(=O)Nc2nccs2)cc1 (configuration not stated)", "DISCRETE LABEL": "N"}
